Biological target: T1, LNX2_2, Q8N448
T1 sequence (Q8N448 334-432, limits assumed, looked up): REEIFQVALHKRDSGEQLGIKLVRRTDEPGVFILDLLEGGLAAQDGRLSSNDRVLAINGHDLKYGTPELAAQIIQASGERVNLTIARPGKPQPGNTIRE
Assay: holdup assay
Set-up: key: below the threshold = too weak to quantify, mostly under pKd 3.1 to 4
Conditions: plain residues with an end cap or a label only (N-terminal biotin on a linker: ado-ado)
result-type: pKd
Give only the figure.

Consider the binder shown here: RSSGGDDFWF [KCNV1, Q6PIU1] What is its recorded pKd?
3.8

Consider the binder shown here: EIPAQSPTCV [FZD10, Q9ULW2] What is its recorded pKd?
5.04

Consider the binder shown here: EKCGKEFSEF [PRKACA, P17612] What is its recorded pKd?
3.49

Consider the binder shown here: QSYPSKHDYV [CLDN18, P56856] What is its recorded pKd?
4.17

Consider the binder shown here: RFQQRMQTHV [KIRREL1, Q96J84] What is its recorded pKd?
4.08

Consider the binder shown here: PYSESDDDWC [CACNA1A, O00555] What is its recorded pKd?
4

Consider the binder shown here: SLNANEVEWF [RNF130, Q86XS8] What is its recorded pKd?
3.7

Consider the binder shown here: LPAVCYDIDI [PTTG2, Q9NZH5] What is its recorded pKd?
3.83

Consider the binder shown here: ARESQKVSHV [FAM110B, Q8TC76] What is its recorded pKd?
4

Consider the binder shown here: TRKRSGEAAV [PFKM, P08237] What is its recorded pKd?
3.53

Value source: paper PMC9482650
